# measured_on: Fus3 (wild type), in vitro translated, 35S-labelled (S. cerevisiae, UniProt P16892 1-353, [35S]methionine label)
# Sequence (P16892 whole entry): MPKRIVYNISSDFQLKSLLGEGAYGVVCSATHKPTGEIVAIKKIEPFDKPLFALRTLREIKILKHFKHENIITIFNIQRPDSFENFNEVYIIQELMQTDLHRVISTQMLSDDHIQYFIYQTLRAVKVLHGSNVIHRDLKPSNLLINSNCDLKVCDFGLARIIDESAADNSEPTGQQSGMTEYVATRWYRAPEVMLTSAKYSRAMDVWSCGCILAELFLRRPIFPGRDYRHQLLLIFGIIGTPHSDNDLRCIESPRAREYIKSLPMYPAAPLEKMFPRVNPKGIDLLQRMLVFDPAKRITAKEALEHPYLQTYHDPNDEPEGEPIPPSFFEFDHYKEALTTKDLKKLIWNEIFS
# test_protocol: pull-down
parameter: Kd

Query block: Using the record for SLKRKRVPPALNFSDIQ (domain or fragment, S. cerevisiae, UniProt Q03373 98-114, looked up) [GST-Dig2_(98-114)] , report its Kd.
Result block: ~1000 nM

Entry source: paper PMC2172336
